# assay_protocol: yeast display, Sf9 membrane polyspecificity reagent, FACS + sequencing; frameworks hold sequencing errors
quantity: polyreactivity (PSR sort gate)

// below: answered sequences
- biosequence: "QVQLVESGGGLVQAGGSLRLSCAASGGIFVSYAMGWYRQAPGNERELVAAITSGGGTSYADSVKGRFTISRDNAKNTVYLQMNSLKPEDTAVYYCNADGYLAERFVIRLDEYRDYDYWGQGTQVTVSS"
  polyreactivity (PSR sort gate): "low polyreactivity"
- biosequence: "QVQLVESGGGLVQAGGSLRLSCAASGFIFGDYAMGWYRQAPGKERELVAAINRGASTYYADSVKGSFTISRDNPKNTVYLQMNSLTPEDTAVYYCAAAGNSRGGRGGYWGQGTQVSVSS"
  polyreactivity (PSR sort gate): "high polyreactivity"
- biosequence: "QVQLVESGGGLVQAGGSLRLSCAASGRNFLVYAMGWYRQAPGKERELVAAITYSDGSTYYADSVKGRFTISRDNAKNTVYLQMNSLKPEDTAVYYCAADSSTFPSDYYWGKGTQVTVSS"
  polyreactivity (PSR sort gate): "low polyreactivity"
- biosequence: "QVQLVESGGGLVQAGGSLRLSCAASGSIFSGYDMGWYRQAPGNERELVAVISWSTTSTYYADSVKGRFTISRDNAKNTVYLQMNSLKPEDTAVYYCNAEAYQYWEFDYWGQGSQVTVSS"
  polyreactivity (PSR sort gate): "low polyreactivity"

Prompt: I am curious: what polyreactivity (PSR sort gate) value has been reported for "QVQLVESGGGLVQAGGSLRLSCAASGSTFRRKVMGGYRQAPGKERELVASIRSGGTTNYADSVKGRFTISRDNAKNTVYLQMNSLKPEDTAVYYCNKRLFWYRHYYYLGQGTQVTVSS" ?
Completion: high polyreactivity

Prompt: // polyreactivity (PSR sort gate) lookup, key: "QVQLVESGGGLVQAGGSLRLSCAASGINFNRYAMGWYRQAPGNERELVAAITSSGGSTHYADSVKGRFTISRDNAKNTVYLQMNSLKPEDTAVYYCAKQFPNNYRYYLHYYYWGQGTQVTVSS"
Completion: low polyreactivity
